Entries and their measured % Inhibition follow.
# Tested on: P. falciparum stage V gametocytes
# Set-up: BacTiter-Glo ATP luminescence viability of purified stage V gametocytes in 384-well plates, per cent inhibition versus DMSO
# test_context: 48 h, 5 µM; inhibitor
Screen size: about 13,000 compounds; about 3,200 (25%) showed an effect of 50% or more. Some of the results follow.
// return numeric value only (unit: %, not printed)

Reference set, count: 2
O=C(Nc1cccc(-c2nc3ccccc3[nH]2)c1)c1cccc(NC(=O)c2ccco2)c1: 18.17
O=c1cc(NCCCNCc2cc(Cl)cc(Cl)c2OCc2ccc(Cl)cc2)[nH]c2ccccc12: -52.63

Request: Would you kindly share the measured % Inhibition for CC(C)N(CC(=O)c1ccc(O)c(C(=O)O)c1)Cc1ccccc1 ?
Response: 0.6957

Request: Would you kindly share the measured % Inhibition for O=C(Nc1ccc(OC2CCN(Cc3ccccc3)C2)c(Cl)c1)c1ccsc1 (stereo not shown) ?
Response: -1.877
